The entries that follow carry log10(IC50) values tested on BRD3 (Homo sapiens (Human), UniProt Q15059), drawn from several published reports.
Remember, log10 of IC50, in µM.

Which log10(IC50) value is on record for Cc1cc(N2C(=O)c3c(c(CO)nn3C3CC3)C2c2ccc(Cl)cc2)cn(C)c1=O (stereo not shown) ?
-1.10

Bench note: what log10(IC50) did Cc1cc(N2C(=O)c3nn(C4CC4)c(C)c3C2c2ccc(Cl)cc2)cn2c(C)nnc12 (stereo not shown) show?
-1.51

Value lookup for log10(IC50); key = Cc1cc(N2C(=O)c3nc(C4=CCN(C(=O)OC(C)C)CC4)n(C(C)C)c3C2c2ccc(Cl)cc2)cn2c(C)nnc12 (stereo not shown)
-1.74

Report log10(IC50) for Cc1cc(N2C(=O)c3nc(C4=CCOCC4)n(C(C)C)c3C2c2ccc(Cl)cc2)nn2c(C(F)F)nnc12 (stereo not shown) please.
-1.80

Recorded log10(IC50) for Cc1cn(C(=O)N(C)C)c2c1C(=O)N(c1cc(C)c3nnc(C)n3c1)C2c1ccc(Cl)cc1 (stereo not shown) , please?
-1.47

Quick check: log10(IC50) of Cc1cn(C)c2c1C(=O)N(c1cc(C)c3nnn(C)c3c1)C2c1ccc(Cl)cc1 (stereo not shown) ?
-1.68

For Cn1ccc2c1C(c1ccccc1)N(c1cc(Cl)c(=O)n(C)c1)C2=O (stereo not shown) , what is its reported log10(IC50)?
-0.56

For the compound shown here, Cc1cc(N2C(=O)c3cc(-c4cccn(C)c4=O)n(C)c3C2c2ccc(Cl)cc2)cn(C)c1=O (stereo not shown) , give the reported log10(IC50).
-1.09

Looking for the measured log10(IC50) of Cc1c2c(nn1C(C)C)C(=O)N(c1cc(Cl)c(=O)n(C)c1)C2c1ccc(Cl)cc1 (stereo not shown) , can you help?
-0.89

Fill in: log10(IC50) of CNC(=O)c1cn(C)c2c1C(=O)N(c1cc(C)c3nnc(C(F)F)n3n1)C2c1ccc(Cl)cc1 (stereo not shown) is ___
-1.72

Could you tell me which log10(IC50) is on file for CNC(=O)n1cc(C)c2c1C(c1ccc(Cl)cc1)N(c1cc(C)c3nnc(C)n3c1)C2=O (stereo not shown) ?
-1.82

Fill in the blank: the reported log10(IC50) of Cc1cc(N2C(=O)c3c(C(=O)N(C)C)cn(C)c3C2c2ccc(Cl)cc2)cn2c(C)nnc12 (stereo not shown) is ____.
-1.33

If you can, please state the reported log10(IC50) value of COc1ncc(-c2nc3c([nH]2)C(c2ccc(Cl)cc2)N(c2cc(C)c4nnc(C)n4c2)C3=O)c(OC)n1 (stereo not shown) .
-1.41

Item under review: COc1ncccc1-n1nc(C)c2c1C(=O)N(c1cc(Cl)c(=O)n(C)c1)C2c1ccc(Cl)cc1 (stereo not shown) . Reported log10(IC50)?
-1.14

Recorded log10(IC50) of `Cc1cc(N2C(=O)c3c(c(CO)nn3C3CC3)[C@H]2c2ccc(Cl)cc2)cn2c(C)nnc12` , please.
-1.89

Need log10(IC50), item Cc1nn(-c2ccnn2C)c2c1C(c1ccc(Cl)cc1)N(c1cc(C)c(=O)n(C)c1)C2=O (racemic)
-1.04

Requested read-out: log10(IC50). Entry: Cc1cc(N2C(=O)c3nc(C4CCN(C)CC4)n(C(C)C)c3C2c2ccc(Cl)cc2)cn2c(C)nnc12 (stereo not shown)
-1.64

Please give the measured log10(IC50) for this compound: `Cc1cc(N2C(=O)c3c(C4CC4)nn(C[C@H](O)C(F)(F)F)c3[C@H]2c2ccc(Cl)cc2)cn2c(C)nnc12`
-1.92

----------
IC50 values for BRD3 (Homo sapiens (Human), UniProt Q15059) compiled from several publications are listed below.
Output spec: scalar in nM, unitless text.

{"compound": "Cc1cn(C)c2c1C(=O)N(c1cc(C)c(=O)n(C)c1)C2c1ccc(Cl)cc1 (stereo not shown)", "target_desc": "BRD3 (Homo sapiens (Human), UniProt Q15059)", "IC50 / nM": 32}
{"compound": "Cc1cc(N2C(=O)c3nc(C4=CCN(C)CC4)n(C4COC4)c3C2c2ccc(Cl)cc2)cc2c1nnn2C (stereo not shown)", "target_desc": "BRD3 (Homo sapiens (Human), UniProt Q15059)", "IC50 / nM": 33.5}
{"compound": "COc1ccccc1-n1nc(C)c2c1C(=O)N(c1cc(C)c3nnc(C)n3c1)C2c1ccc(F)cc1F (stereo not shown)", "target_desc": "BRD3 (Homo sapiens (Human), UniProt Q15059)", "IC50 / nM": 30}

Need IC50, item Cc1cc(N2C(=O)c3nc(C4=CCOCC4)n(C(C)C)c3C2c2ccc(Cl)cc2)nn2c(C)nnc12 (stereo not shown)
25
